biological target: recombinant human ACC1 (acetyl-CoA carboxylase 1) (Homo sapiens); construct: NM_198834, amino acids 39—end; FLAG (C); test: Human ACC1 enzyme assay (HTRF ADP detection); settings: 50 μM ATP, 20 μM acetyl-CoA, 15 min pre-incubation, 20 min at 22° C.; read-out: ACC 1 IC50;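 further: ADP by-product quantified by competitive HTRF immunoassay with europium cryptate anti-ADP antibody and d2-labelled ADP, read after 1 h binding at 22 °C, enzyme near 2.5 ng/µl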
measuredParameter: IC50 (nM)
Just the number please, in nM, no unit attached.

[[record]]
compound = "COCC1CCC2(CC1)OC(=O)C(c1cc(-c3ccc(Cl)cc3)ccc1Cl)=C2O (centres unmarked)"
unitslabel = "nM"
measuredvalue = 180

[[record]]
compound = "Cc1ccc(-c2ccc(Cl)cc2)cc1C1=C(O)C2(CCOC(C)C2)NC1=O (centres unmarked)"
unitslabel = "nM"
measuredvalue = 450

[[record]]
compound = "O=C1NC2(CCOCC2)C(O)=C1c1cc(-c2cc(F)c(F)c(F)c2)ccc1Cl"
unitslabel = "nM"
measuredvalue = 497

[[record]]
compound = "CO[C@H]1CC[C@]2(CC1)NC(=O)C(c1c(C)ccc(-c3ccc(F)cc3)c1C)=C2O"
unitslabel = "nM"
measuredvalue = 776

[[record]]
compound = "Cc1ccc(-c2ccc(Cl)cc2)cc1C1=C(O)C2(CCC3(CC2)OCCO3)NC1=O"
unitslabel = "nM"
measuredvalue = 237

[[record]]
compound = "COCCO[C@@H]1CCC[C@]2(C1)NC(=O)C(c1cc(-c3ccc(Cl)cc3)ccc1Cl)=C2O (relative stereo)"
unitslabel = "nM"
measuredvalue = 656


Kindly note the recorded IC50 for CC1OC2(CCC3(CC2)NC(=O)C(c2cc(-c4ccc(Cl)cc4)ccc2Cl)=C3O)OC1C (centres unmarked) , which is 661

Kindly note the recorded IC50 for Cc1cc(C)c(-c2ccc(Cl)cc2)cc1C1=C(O)C2(CCCOC2)NC1=O (centres unmarked) , which is 790
